Give measured Anti-CD28 Fab signal in the presence of CD28 for each item. Keep answers brief.
EXPERIMENTAL_SYSTEM: Anti-CD28 Fab (SEQ ID NOs: 696, 697)
Sequence (VH, as listed by the source, chain 1 of 2): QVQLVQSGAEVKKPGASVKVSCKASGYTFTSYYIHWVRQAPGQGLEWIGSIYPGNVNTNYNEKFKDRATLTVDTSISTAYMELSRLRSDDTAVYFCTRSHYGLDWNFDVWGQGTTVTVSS
Sequence (VL, as listed by the source, chain 2 of 2): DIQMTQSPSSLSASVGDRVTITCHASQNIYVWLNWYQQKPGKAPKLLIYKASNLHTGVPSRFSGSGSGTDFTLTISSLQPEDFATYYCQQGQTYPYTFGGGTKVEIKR
ASSAY_NOTES: phage binding ELISA; captured anti-CD28 Fab pre-incubated with CD28 antigen as competitor, anti-M13 HRP detection
Where no end group is shown, it is not given here.

>  <BINDER>
YCDGHSPMYIGKCL (cysteine pairing not given here; also: displayed on phage by fusion to pIII, pIII and linker sequence not given here) [Phage-697]

>  <RESULT>
0.07

$$$$

Q: Which value of Anti-CD28 Fab signal in the presence of CD28 has been reported for YCEGHAPQYIAKCL (cysteine pairing not given here; also: displayed on phage by fusion to pIII, pIII and linker sequence not given here) [Phage-696] in the records?
Ans: 0.08
